B1: ZNF649 (parent)
chain: EHERAHRGEKPHGCSLCGKAFYKR

variants of: B1; experiment: protein stability index of a GFP-peptide fusion (GPS, HEK-293T) (PSI 1-6); higher = more stable; conditions: c terminus: a fixed tail appended;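 further: lentivirally expressed fusions sorted by FACS into six bins by GFP to DsRed ratio, PSI derived from sequencing read proportions per bin multiplied by bin number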
// label = 1.0 if protein stability index is not less than 3, otherwise 0.0

Problem: hey, is protein stability index for this one >= 3? EHERAHRGEKPHGCKLCGKAFYKR [S15K]
Solution: 1.0

Problem: Textbook exercise: given the entry EYERAHRGEKPHGCSLCGKAFYKR [H2Y] , state whether its protein stability index is greater than or equal to 3.
Solution: 0.0

Problem: Textbook exercise: given the entry EHERAHRGEKPHGCSLSGKAFYKR [C17S] , state whether its protein stability index is greater than or equal to 3.
Solution: 1.0

Problem: Is protein stability index at least 3? Consider EHERKHRGEKPHGCSLCGKAFYKR [A5K]
Solution: 0.0

Problem: Dear colleague, could you confirm whether EHERQHRGEKPHGCSLCGKAFYKR [A5Q] has protein stability index at or above 3?
Solution: 0.0

Problem: Is protein stability index for EHERAHSGEKPHGCSLCGKAFYKR [R7S] at or above 3?
Solution: 0.0

Problem: # check: protein stability index of EHERAHRGEKPHGFSLCGKAFYKR [C14F] is greater than or equal to 3
Solution: 0.0

Problem: Reported protein stability index at or above 3? EHGRAHRGEKPHGCSLCGKAFYKR [E3G]
Solution: 0.0

Problem: hey, is protein stability index for this one >= 3? EHERAHRGEKCHGCSLCGKAFYKR [P11C]
Solution: 0.0

Problem: Is it the case that EHERAHRGEKPHGCSLCGKAFYKW [R24W] has protein stability index reaching or exceeding 3?
Solution: 1.0

Problem: Is protein stability index for EHERAHRGEKPHGCSLCGKAFQKR [Y22Q] at or above 3?
Solution: 0.0

Problem: Assess whether reported protein stability index for EHERAQRGEKPHGCSLCGKAFYKR [H6Q] sits at 3 or higher.
Solution: 0.0

Problem: Evaluate EHERAHRGEKPHGCSLCGKAFMKR [Y22M] : protein stability index at minimum 3?
Solution: 0.0

Problem: Is the recorded value of protein stability index equal to or greater than 3 for this variant? EHERAHRGEKPEGCSLCGKAFYKR [H12E]
Solution: 0.0

Problem: Form field: protein stability index at least 3? Entry: EHERAHRGEKPHGVSLCGKAFYKR [C14V]
Solution: 1.0

Problem: Say whether EHERAHRGEVPHGCSLCGKAFYKR [K10V] shows protein stability index of 3 or more.
Solution: 0.0

Problem: Tell me whether protein stability index is at least 3 here: EHERAHRGEKPHGCSLHGKAFYKR [C17H]
Solution: 1.0

Problem: Given EHERAHRGEKPHGCSLCGKAFIKR [Y22I] , state whether its protein stability index is at least 3.
Solution: 0.0

Problem: Could you please find out whether EHERAHRGEKPPGCSLCGKAFYKR [H12P] has protein stability index that meets 3 or exceeds it?
Solution: 0.0

Problem: Record EHYRAHRGEKPHGCSLCGKAFYKR [E3Y] ; criterion: protein stability index no lower than 3. Met?
Solution: 0.0
